# measurement notes: Phase 1 dose-escalation (QD/BID) study in normal healthy volunteers
# Type: in vivo, human
# measurement conditions: human, plasma, po, 35 mg, Treatment D: 35 mg ×2, total 70 mg; oral; human plasma; mean; read-out: PM Cmax
endpoint name: Cmax (µg/mL)
Report the figure in µg/mL without appending any unit label.

Incoming: # query: Cmax of entry Cc1cccc(/C=N/Nc2cc(N3CCOCC3)nc(OCCc3ccccn3)n2)c1 [apilimod]
Outgoing: 0.063

###

# Test system: HT-29 (Human Colorectal)
# measurement notes: CellTiterGlo cell viability assay
# Type: cell-based
# Protocol: Briefly, test compounds (5 μl stock solution, 6×desired final well concentration) were dispensed to 384-well assay plates, TSC2−/− MEF cells (1000 cells per well in 25 μL of media) were added to the plates and the plates were incubated for 72 h (3 days) at 37° C. under an atmosphere of 5% CO2 in a humidified incubator for 3 days. Cell viability was determined with CellTiter-Glo® luminescence assay (Promega) per the manufacturer's instructions. […]
endpoint name: IC50

Incoming: Can you look up the measured IC50 of Cc1cccc(/C=N/Nc2cc(N3CCOCC3)nc(OCCc3ccccn3)n2)c1 [apilimod] for me?
Outgoing: > 10 µM
